- Tested on: Bacillus subtilis
- assayName: Antibacterial activity against Bacillus subtilis MTCC 121 at 2 mg/ml after 24 hr by agar well diffusion method
- Format: functional
- condition: MTCC 121, 24 h, read-out: DIZ
Listing: zone of inhibition at 2000 µg/mL of selected molecules
Give a bare numeral; the unit mm is implied.

// below: answered molecules
{"itemSmiles": "CC(=O)/C(Br)=C/c1cn(-c2ccccc2)nc1-c1ccccc1", "assayedTarget": "Bacillus subtilis", "metricName": "zone of inhibition at 2000 µg/mL", "endpointUnit": "mm", "measValue": 16.6}
{"itemSmiles": "Cc1cc(-c2cn(-c3ccccc3)nc2-c2ccc([N+](=O)[O-])cc2)n(-c2ccccc2)n1", "assayedTarget": "Bacillus subtilis", "metricName": "zone of inhibition at 2000 µg/mL", "endpointUnit": "mm", "measValue": 18.6}
{"itemSmiles": "CC(=O)/C(Br)=C/c1cn(-c2ccc([N+](=O)[O-])cc2)nc1-c1ccc(F)cc1", "assayedTarget": "Bacillus subtilis", "metricName": "zone of inhibition at 2000 µg/mL", "endpointUnit": "mm", "measValue": 17.3}
{"itemSmiles": "Cc1cc(-c2cn(-c3ccc([N+](=O)[O-])cc3)nc2-c2ccccc2)n(-c2ccccc2)n1", "assayedTarget": "Bacillus subtilis", "metricName": "zone of inhibition at 2000 µg/mL", "endpointUnit": "mm", "measValue": 14.3}
{"itemSmiles": "COc1ccc(-c2nn(-c3ccccc3)cc2-c2cc(C)nn2-c2ccccc2)cc1", "assayedTarget": "Bacillus subtilis", "metricName": "zone of inhibition at 2000 µg/mL", "endpointUnit": "mm", "measValue": 14}

Can you look up the measured zone of inhibition at 2000 µg/mL of Cc1ccc(-c2nn(-c3ccccc3)cc2-c2cc(C)nn2-c2ccccc2)cc1 for me?
16.3

Can you look up the measured zone of inhibition at 2000 µg/mL of COc1ccc(-c2nn(-c3ccc([N+](=O)[O-])cc3)cc2-c2cc(C)nn2-c2ccccc2)cc1 for me?
14

Can you look up the measured zone of inhibition at 2000 µg/mL of Cc1cc(-c2cn(-c3ccccc3)nc2-c2ccc(Br)cc2)n(-c2ccccc2)n1 for me?
20.6

Can you look up the measured zone of inhibition at 2000 µg/mL of CC(=O)/C(Br)=C/c1cn(-c2ccccc2)nc1-c1ccc(C)cc1 for me?
17

Taken from ChEMBL document CHEMBL3044634.
